# TESTED_SYSTEM: Opioid receptors; delta & kappa (Homo sapiens) (UniProt P41145+P41143)
# Sequence (P41143 whole entry, looked up): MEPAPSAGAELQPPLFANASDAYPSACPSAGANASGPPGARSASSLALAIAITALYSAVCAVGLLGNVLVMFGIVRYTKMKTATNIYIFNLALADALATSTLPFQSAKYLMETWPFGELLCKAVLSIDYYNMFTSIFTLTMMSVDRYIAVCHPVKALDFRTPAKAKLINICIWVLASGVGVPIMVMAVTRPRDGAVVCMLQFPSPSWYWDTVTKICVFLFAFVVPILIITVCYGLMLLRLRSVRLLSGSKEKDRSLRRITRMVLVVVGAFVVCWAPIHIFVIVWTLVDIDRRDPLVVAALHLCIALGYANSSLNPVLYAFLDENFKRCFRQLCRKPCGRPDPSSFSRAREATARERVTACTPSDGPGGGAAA
# Sequence (P41145 whole entry, looked up): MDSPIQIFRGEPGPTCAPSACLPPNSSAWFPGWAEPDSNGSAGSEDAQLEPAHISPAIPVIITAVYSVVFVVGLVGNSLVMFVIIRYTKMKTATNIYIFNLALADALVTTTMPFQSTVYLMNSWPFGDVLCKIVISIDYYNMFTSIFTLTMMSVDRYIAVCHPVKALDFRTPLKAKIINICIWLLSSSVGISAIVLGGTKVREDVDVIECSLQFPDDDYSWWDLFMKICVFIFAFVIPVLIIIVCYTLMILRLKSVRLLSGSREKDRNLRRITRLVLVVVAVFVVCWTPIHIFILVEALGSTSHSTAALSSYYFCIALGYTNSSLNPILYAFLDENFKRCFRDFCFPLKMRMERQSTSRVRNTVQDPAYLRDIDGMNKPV
# MEASUREMENT_DESCRIPTION: Ratio of (Ke) delta-opioid receptor to that of (Ke) kappa-opioid receptor
# Assay type: protein assay
VALUE_KIND: Ratio
// no unit string in output, number only

> print(dat)
                                  structure  readout.value
1  N/C(=N\CCc1ccc2[nH]c3c(c2c1)C[C@@]1(O)[C@H]2Cc4ccc(O)c5c4[C@@]1(CCN2CC1CC1)[C@H]3O5)NCc1ccc([N+](=O)[O-])cc1              8
2  N/C(=N\CCc1ccc2[nH]c3c(c2c1)C[C@@]1(O)[C@H]2Cc4ccc(O)c5c4[C@@]1(CCN2CC1CC1)[C@H]3O5)NCc1ccccc1             10
3  N/C(=N/Cc1ccc(O)cc1)Nc1ccc2[nH]c3c(c2c1)C[C@@]1(O)[C@H]2Cc4ccc(O)c5c4[C@@]1(CCN2CC1CC1)[C@H]3O5            183
4  N=C(N)NCc1ccc2[nH]c3c(c2c1)C[C@@]1(O)[C@H]2Cc4ccc(O)c5c4[C@@]1(CCN2CC1CC1)[C@H]3O5            389

Consider the record given below.
Form entry - test system: Opioid receptors; delta & kappa (Homo sapiens) (UniProt P41145+P41143); read-out: Ratio; molecule: N=C(N)NCCc1ccc2[nH]c3c(c2c1)C[C@@]1(O)[C@H]2Cc4ccc(O)c5c4[C@@]1(CCN2CC1CC1)[C@H]3O5 2
